Test details: Oral bioavailability in rat at 10 mg/kg
Assay type: ADME, organism-based
Test parameters: in vivo
Experimental endpoint: bioavailability (%)
Answers are plain numbers, in %.

// lookup bioavailability for CC(C)c1cc(CN2Cc3ccccc3S2(=O)=O)nn1-c1ccc(F)cc1
9.2

----------
Assayed target: Voltage-dependent T-type calcium channel subunit alpha-1H (Homo sapiens, UniProt O95180)
Sequence (O95180 whole entry): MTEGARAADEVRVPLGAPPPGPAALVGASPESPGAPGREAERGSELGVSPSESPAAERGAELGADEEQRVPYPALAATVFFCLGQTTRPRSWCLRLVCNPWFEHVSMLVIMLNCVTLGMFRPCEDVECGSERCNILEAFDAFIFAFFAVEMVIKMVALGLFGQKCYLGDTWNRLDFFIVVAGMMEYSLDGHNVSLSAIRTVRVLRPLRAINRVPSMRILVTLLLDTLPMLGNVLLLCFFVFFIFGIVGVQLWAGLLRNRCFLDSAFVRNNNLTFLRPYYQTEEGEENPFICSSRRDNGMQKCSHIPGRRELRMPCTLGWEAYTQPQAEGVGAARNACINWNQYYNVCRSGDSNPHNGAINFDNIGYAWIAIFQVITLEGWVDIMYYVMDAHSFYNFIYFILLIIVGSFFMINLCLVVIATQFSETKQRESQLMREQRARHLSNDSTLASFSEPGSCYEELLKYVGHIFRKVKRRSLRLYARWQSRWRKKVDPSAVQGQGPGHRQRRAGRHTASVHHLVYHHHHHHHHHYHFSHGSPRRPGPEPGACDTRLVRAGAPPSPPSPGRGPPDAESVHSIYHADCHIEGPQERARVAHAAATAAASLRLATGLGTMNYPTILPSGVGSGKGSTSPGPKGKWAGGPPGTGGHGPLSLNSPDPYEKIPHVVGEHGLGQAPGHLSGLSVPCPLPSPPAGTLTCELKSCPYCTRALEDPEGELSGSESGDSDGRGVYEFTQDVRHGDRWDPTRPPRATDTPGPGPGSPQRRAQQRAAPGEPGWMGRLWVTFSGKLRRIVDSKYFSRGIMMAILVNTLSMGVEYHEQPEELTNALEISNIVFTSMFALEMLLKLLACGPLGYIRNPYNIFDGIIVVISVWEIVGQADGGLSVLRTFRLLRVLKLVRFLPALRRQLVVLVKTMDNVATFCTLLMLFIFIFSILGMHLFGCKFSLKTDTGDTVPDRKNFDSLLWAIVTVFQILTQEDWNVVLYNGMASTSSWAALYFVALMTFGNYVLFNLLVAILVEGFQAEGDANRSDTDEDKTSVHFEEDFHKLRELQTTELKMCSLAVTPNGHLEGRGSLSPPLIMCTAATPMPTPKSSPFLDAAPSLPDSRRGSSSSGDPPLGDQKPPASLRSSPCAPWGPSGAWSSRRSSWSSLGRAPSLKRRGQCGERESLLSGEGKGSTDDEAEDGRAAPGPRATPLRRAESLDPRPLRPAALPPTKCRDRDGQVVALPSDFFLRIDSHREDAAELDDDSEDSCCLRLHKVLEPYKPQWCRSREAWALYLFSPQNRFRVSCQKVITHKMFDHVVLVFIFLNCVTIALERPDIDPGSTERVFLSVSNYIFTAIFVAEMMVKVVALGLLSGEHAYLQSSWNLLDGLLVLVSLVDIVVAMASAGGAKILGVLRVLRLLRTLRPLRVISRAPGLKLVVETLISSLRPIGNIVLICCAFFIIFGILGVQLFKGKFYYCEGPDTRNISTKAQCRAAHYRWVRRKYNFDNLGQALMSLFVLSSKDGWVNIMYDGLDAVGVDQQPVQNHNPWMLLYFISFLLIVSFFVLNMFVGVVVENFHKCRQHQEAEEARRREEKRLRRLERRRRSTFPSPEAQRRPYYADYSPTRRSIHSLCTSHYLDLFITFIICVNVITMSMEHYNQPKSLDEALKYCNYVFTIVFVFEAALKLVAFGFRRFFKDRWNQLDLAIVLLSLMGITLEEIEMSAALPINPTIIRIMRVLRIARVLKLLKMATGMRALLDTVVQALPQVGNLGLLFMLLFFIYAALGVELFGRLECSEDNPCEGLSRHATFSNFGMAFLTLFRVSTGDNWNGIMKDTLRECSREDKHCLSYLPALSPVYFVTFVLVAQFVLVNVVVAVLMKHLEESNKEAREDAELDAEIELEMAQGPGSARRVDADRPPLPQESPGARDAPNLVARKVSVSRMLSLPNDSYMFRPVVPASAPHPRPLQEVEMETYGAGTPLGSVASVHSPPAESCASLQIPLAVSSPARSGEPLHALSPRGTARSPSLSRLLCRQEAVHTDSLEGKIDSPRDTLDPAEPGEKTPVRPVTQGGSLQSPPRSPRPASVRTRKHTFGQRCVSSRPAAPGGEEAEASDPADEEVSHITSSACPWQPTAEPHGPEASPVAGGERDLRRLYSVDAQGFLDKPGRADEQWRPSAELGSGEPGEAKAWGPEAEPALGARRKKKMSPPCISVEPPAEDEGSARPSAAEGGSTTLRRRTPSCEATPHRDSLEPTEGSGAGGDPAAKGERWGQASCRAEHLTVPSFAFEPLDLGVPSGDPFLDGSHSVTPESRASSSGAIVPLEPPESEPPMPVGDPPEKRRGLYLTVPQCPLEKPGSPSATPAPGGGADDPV
Test details: Inhibition of Cav3.2 alpha1H (unknown origin) expressed in HEK293 cells assessed as reduction in KCl-induced depolarization mediated intracellular Ca2+ level at 10 uM by fluo3/AM based high throughput screening assay relative to control
Format: cell-based
Hi there, I'd appreciate the recorded inhibition for every entry that follows.
One number for each entry, in %.

Reference set, count: 2
[
  {
    "Smiles code": "CC(C)(C)n1nc(CN2Cc3ccccc3S2(=O)=O)cc1-c1ccc(N2CCCCC2)cc1",
    "Experimental endpoint": "inhibition",
    "Unit spec": "%",
    "Observed value": 16.3
  },
  {
    "Smiles code": "Cc1c(CNS(=O)(=O)c2ccccc2)nn(-c2ccccc2)c1CC(C)C",
    "Experimental endpoint": "inhibition",
    "Unit spec": "%",
    "Observed value": 72
  }
]

Would you kindly share the measured inhibition for CC(C)c1cc(CN2Cc3ccccc3S2(=O)=O)nn1C(C)(C)C ?
68
